FYI, the data here is from ChEMBL document CHEMBL2034935.

Experiment: Intrinsic clearance in human liver microsomes assessed per mg protein at 1 uM up to 45 mins by LC/MS analysis
Type: ADME, Microsome
Conditions: read-out: CLH
Observed property: microsomal CLint at 1 µM (µL/min/mg)

CS(=O)(=O)c1ccc(CN(C(=O)C2CCCC2)c2cc(F)cc(-c3nnn[nH]3)c2)cc1    92
CC(C)CC(=O)N(Cc1ccc(S(C)(=O)=O)cc1)c1cc(F)cc(-c2nnn[nH]2)c1    17
CS(=O)(=O)c1ccc(CN(C(=O)Cc2ccccc2)c2cc(F)cc(-c3nnn[nH]3)c2)cc1    28

A. CCC(=O)N(Cc1cccc(OC(C)C)c1)c1cc(F)cc(-c2nnn[nH]2)c1
B. CCC(=O)N(Cc1cccc(O)c1)c1cc(F)cc(-c2nnn[nH]2)c1
Of the two listed items, A and B , which carries the larger microsomal CLint at 1 µM figure? Pick one and reply with its label. A
(A: 1700 µL/min/mg, B: 55 µL/min/mg)

====

Biological target: UniProt P33261
Sequence (P33261 whole entry): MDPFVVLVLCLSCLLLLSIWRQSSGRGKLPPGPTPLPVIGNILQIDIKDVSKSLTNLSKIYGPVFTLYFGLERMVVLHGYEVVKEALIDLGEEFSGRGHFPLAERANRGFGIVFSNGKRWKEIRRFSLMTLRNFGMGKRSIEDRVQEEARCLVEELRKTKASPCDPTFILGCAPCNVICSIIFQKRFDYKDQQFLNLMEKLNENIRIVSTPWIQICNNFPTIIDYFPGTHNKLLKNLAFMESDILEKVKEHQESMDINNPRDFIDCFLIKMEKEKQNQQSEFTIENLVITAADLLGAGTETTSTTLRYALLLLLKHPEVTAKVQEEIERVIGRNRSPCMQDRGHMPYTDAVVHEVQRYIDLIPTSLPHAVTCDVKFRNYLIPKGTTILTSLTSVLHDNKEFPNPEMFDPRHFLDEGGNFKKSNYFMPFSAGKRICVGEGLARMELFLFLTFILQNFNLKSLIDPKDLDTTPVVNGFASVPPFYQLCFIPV
Assay: Inhibition of human recombinant CYP2C19 incubated for 15 mins prior to substrate addition measured after 30 mins by spectrophotometry
Observed property: IC50 (nM)

Worked examples follow.
CC(C)CC(=O)N(Cc1ccc(S(C)(=O)=O)cc1)c1cc(F)cc(-c2nnn[nH]2)c1    7500
CCC(=O)N(Cc1cccc(OC(C)C)c1)c1cc(F)cc(-c2nnn[nH]2)c1    900
CCCCC(=O)N(Cc1ccc(OC)cc1)c1cccc(-c2nnn[nH]2)c1    260

P. CCC(=O)N(Cc1cccc(O)c1)c1cc(F)cc(-c2nnn[nH]2)c1
Q. CCC(=O)N(Cc1ccc(OC(F)(F)F)cc1)c1cc(F)cc(-c2nnn[nH]2)c1
In the pair P and Q , the larger recorded IC50 belongs to which? Refer to your chosen entry by its label in the reply. P
(P: 3700 nM, Q: 51 nM)

====

Target: UniProt:P10632
Sequence (P10632 whole entry): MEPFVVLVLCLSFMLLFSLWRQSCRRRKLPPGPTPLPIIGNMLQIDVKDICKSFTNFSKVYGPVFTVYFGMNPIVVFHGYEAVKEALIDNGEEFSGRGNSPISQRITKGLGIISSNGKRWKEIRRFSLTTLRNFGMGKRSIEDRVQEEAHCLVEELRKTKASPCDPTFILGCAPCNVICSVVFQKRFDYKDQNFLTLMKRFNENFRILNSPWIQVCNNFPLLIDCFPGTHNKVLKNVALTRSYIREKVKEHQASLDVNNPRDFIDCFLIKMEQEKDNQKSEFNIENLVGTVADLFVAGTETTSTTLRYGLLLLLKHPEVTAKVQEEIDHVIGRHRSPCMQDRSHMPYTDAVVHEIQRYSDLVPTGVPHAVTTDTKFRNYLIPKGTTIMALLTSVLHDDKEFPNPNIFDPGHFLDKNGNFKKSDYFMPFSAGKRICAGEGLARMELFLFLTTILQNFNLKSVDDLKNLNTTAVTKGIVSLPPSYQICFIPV
Assay: Inhibition of human recombinant CYP2C8 incubated for 15 mins prior to substrate addition measured after 30 mins by spectrophotometry
Observed property: IC50 (nM)

CCC(=O)N(Cc1ccc(C(F)(F)F)cc1)c1cc(F)cc(-c2nnn[nH]2)c1    86
CS(=O)(=O)c1ccc(CN(C(=O)C2CCCC2)c2cc(F)cc(-c3nnn[nH]3)c2)cc1    220
CCC(=O)N(Cc1cccc(OC(C)C)c1)c1cc(F)cc(-c2nnn[nH]2)c1    470
CCC(=O)N(Cc1ccc(S(C)(=O)=O)cc1)c1cc(F)cc(-c2nnn[nH]2)c1    54
CC(C)CC(=O)N(Cc1ccc(S(C)(=O)=O)cc1)c1cc(F)cc(-c2nnn[nH]2)c1    79
CCCCC(=O)N(Cc1ccc2c(c1)OCCO2)c1cccc(-c2nnn[nH]2)c1    570
CS(=O)(=O)c1ccc(CN(C(=O)Cc2ccccc2)c2cc(F)cc(-c3nnn[nH]3)c2)cc1    50

P. CCC(=O)N(Cc1ccc(OC(F)(F)F)cc1)c1cc(F)cc(-c2nnn[nH]2)c1
Q. CCCCC(=O)N(Cc1ccc(OC)cc1)c1cccc(-c2nnn[nH]2)c1
R. CCC(=O)N(Cc1cccc(O)c1)c1cc(F)cc(-c2nnn[nH]2)c1
Put the compounds in ascending order of IC50. Dear reader, please state the labels in the requested order. P, Q, R

====

Target: Prostaglandin D2 receptor 2 (Homo sapiens, UniProt Q9Y5Y4)
Sequence (Q9Y5Y4 whole entry): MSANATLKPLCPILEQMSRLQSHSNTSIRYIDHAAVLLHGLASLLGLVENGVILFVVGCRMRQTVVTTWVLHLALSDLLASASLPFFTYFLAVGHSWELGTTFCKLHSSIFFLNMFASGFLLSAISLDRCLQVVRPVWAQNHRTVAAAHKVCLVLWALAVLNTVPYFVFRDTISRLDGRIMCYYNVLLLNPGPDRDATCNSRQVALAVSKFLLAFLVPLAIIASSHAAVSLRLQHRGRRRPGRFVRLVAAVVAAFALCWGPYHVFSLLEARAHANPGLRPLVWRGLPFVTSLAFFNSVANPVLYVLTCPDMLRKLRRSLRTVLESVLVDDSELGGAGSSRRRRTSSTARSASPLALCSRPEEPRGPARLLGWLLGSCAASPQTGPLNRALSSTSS
Assay: Displacement of [3HPGD2 from human CRTH2 receptor expressed in CHO cell membrane after 90 mins by scintillation proximity assay
Format: cell membranes
Observed property: Ki (nM)

Worked examples, 8 compounds total:
CCCC(=O)N(Cc1ccc2c(c1)OCCO2)c1cc(-c2nnn[nH]2)ccc1F    4.9
CCCCC(=O)N(Cc1cccc(OC)c1)c1cc(F)cc(-c2nnn[nH]2)c1    3
CCCCC(=O)N(Cc1ccc2c(c1)OCCO2)c1cc(F)cc(-c2nnn[nH]2)c1    2
CCC(=O)N(Cc1ccc(S(C)(=O)=O)cc1)c1cccc(-c2nnn[nH]2)c1    69
CCC(=O)N(Cc1ccc(C(F)(F)F)cc1)c1cc(F)cc(-c2nnn[nH]2)c1    5.7
CCC(=O)N(Cc1ccccc1F)c1cccc(-c2nnn[nH]2)c1    950
CCCCC(=O)N(Cc1ccc2c(c1)OCCO2)c1cccc(-c2nnn[nH]2)c1    7
CCCCC(=O)N(Cc1ccc(OC)cc1)c1cc(Cl)cc(-c2nnn[nH]2)c1    3.6

1. CCCCC(=O)N(Cc1ccc(OC(F)(F)F)cc1)c1cc(F)cc(-c2nnn[nH]2)c1
2. CCC(=O)N(Cc1ccc(F)cc1)c1cccc(-c2nnn[nH]2)c1
3. CCC(=O)N(Cc1ccc(S(C)(=O)=O)cc1)c1cc(F)cc(-c2nnn[nH]2)c1
Arrange the 3 entries by Ki so the values rise. Dear reader, please state the labels in the requested order. 3, 1, 2
(3: 3.1 nM, 1: 7.7 nM, 2: 1200 nM)
